Measured values drawn from patent US20140158116A1 for this set.

- target-entity: hTRPV4 (Homo sapiens, UniProt Q9HBA0)
- Sequence (Q9HBA0 whole entry): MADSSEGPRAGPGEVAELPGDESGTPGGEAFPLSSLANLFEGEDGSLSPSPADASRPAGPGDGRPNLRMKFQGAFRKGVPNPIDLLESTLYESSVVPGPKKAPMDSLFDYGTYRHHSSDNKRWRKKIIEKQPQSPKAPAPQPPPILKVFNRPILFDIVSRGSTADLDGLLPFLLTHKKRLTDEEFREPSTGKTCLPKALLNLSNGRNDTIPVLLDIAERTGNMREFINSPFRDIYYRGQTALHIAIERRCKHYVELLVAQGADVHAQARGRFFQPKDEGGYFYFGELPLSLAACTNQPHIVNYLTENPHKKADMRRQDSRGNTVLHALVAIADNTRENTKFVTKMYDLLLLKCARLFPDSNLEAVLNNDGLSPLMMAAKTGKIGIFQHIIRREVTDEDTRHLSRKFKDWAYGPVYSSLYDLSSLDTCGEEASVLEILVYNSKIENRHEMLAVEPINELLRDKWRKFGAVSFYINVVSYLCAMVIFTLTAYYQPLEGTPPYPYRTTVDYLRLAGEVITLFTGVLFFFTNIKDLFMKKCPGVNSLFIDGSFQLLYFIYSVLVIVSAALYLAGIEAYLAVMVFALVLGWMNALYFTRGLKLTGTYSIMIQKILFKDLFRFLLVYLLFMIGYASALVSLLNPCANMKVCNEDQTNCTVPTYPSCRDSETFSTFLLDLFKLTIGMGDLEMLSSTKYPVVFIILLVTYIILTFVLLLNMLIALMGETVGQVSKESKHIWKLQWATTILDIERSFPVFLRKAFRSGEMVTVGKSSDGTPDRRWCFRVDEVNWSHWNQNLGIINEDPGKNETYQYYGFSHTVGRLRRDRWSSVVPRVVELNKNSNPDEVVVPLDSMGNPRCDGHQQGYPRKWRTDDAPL
- assay-procedure: Patch clamp selectivity, hTRPV4 block
- condition-label: 2 micromolar 4α-PDD, Inward (−80 mV)
pIC50: −log10 of the molar value.
property-measured: pIC50

>>> df
                           molecular_string  recorded_measurement
0  C[C@H]1CCCN1c1ncc(-c2cccc(NC(=O)Cn3cnc4c3c(=O)n(C)c(=O)n4C)n2)cn1                  4.80

---

- target-entity: hTRPV6 (Homo sapiens, UniProt Q9H1D0)
- Sequence (Q9H1D0 whole entry): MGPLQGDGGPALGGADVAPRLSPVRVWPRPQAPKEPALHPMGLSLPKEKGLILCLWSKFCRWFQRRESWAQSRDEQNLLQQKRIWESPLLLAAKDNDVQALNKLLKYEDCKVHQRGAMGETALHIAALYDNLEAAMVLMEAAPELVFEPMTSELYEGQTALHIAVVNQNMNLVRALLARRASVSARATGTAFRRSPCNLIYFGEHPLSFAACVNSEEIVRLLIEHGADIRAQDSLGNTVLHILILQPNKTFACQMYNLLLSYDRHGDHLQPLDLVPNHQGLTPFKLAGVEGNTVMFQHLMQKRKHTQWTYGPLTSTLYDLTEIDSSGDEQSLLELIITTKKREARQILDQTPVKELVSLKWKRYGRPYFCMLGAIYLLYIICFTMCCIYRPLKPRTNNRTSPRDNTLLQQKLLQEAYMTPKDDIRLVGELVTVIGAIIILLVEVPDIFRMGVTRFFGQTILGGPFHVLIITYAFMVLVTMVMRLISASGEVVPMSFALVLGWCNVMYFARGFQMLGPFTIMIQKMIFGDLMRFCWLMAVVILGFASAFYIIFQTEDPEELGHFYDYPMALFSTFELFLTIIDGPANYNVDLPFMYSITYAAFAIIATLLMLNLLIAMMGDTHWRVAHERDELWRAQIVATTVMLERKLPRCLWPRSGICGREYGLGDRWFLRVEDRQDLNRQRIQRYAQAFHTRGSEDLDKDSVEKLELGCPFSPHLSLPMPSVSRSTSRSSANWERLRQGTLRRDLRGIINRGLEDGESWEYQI
- assay-procedure: Patch clamp selectivity, hTRPV6
- condition-label: Voltage, Inward (−80 mV)
property-measured: IC50 (µM)

>>> df
                                   molecule                          target_entity  property_measured  units_of_measure  recorded_measurement
0  C[C@H]1CCCN1c1ncc(-c2cccc(NC(=O)Cn3cnc4c3c(=O)n(C)c(=O)n4C)n2)cn1 [Formula (Ia)]  hTRPV6 (Homo sapiens, UniProt Q9H1D0)               IC50                µM                    34
